- Test system: HCT-15 colon
- RUN DESCRIPTION: NCI tumour cell line growth inhibition, 48 h
PROPERTY LABEL: TGI

Worked examples, 5 compounds total:
COc1ccc(C(CC2(c3ccc(OC)cc3)SCCCS2)NC(C)=O)cc1 (stereo not given): > 100 µM
COc1cc(C(=O)NC2CCc3cc(OC)c(OC)c(OC)c3-c3ccc(OC)c(=O)cc32)cc(OC)c1OC (stereo not given): > 100 µM
NC1N=C(c2ccc(Cl)cc2)C2=C(N1)c1ccccc1CC2 (stereo not given): > 100 µM
Cc1onc(-c2ccccc2)c1C(=O)N/N=C/c1cc(Cl)cc(Cl)c1O: > 100 µM
CC1=C(C#N)C(=C(C#N)C#N)OC1(C)Cc1ccccc1 (stereo not given): 83 µM

Which TGI is reported for this compound? CSc1nc(-c2ccc(Cl)cc2)c(C#N)c(=O)n1C1OC(COC(C)=O)C(OC(C)=O)C(OC(C)=O)C1OC(C)=O (stereo not given) > 100 µM

###

- Tested on: MALME-3M melanoma
- RUN DESCRIPTION: NCI tumour cell line growth inhibition, 48 h
Known TGI of a selection of compounds
A number alone suffices; assume µM.

Worked examples, 6 compounds total:
Cc1onc(-c2ccccc2)c1C(=O)N/N=C/c1cc(Cl)cc(Cl)c1O: 27.4
Cc1cc(NC2=CC(=O)C(=O)c3ccccc32)no1: 5.92
C=CCN(c1cc(OC)c(NC(C)=O)cc1[N+](=O)[O-])S(C)(=O)=O: 68.5
CCOC(=O)C1=CCCC[C@H]1S(=O)(=O)Nc1ccc(F)cc1Cl: 85.2
CCN1CCC(O)(c2ccc(Oc3ccc(Cl)cc3)cc2)C(C(=O)c2ccc(Oc3ccc(Cl)cc3)cc2)C1 (stereo unspecified): 35.6
COc1cc(/C=C2\CC3C4CC=C5C[C@@H](OC(C)=O)CC[C@]5(C)C4CC[C@]3(C)C2=O)ccc1OCCN1CCCCC1 (stereo partly specified): 3.35

Which TGI is reported for this compound? N#C/C(=C\c1ccc(F)cc1)c1nc(-c2cc3ccccc3oc2=O)cs1 52.9

Which TGI is reported for this compound? O=C(C=P(c1ccccc1)(c1ccccc1)c1ccccc1)c1ccc(-c2cccs2)cc1 13.4

Which TGI is reported for this compound? Cc1ccc(O)c(NC(=O)c2cccc(Nc3ccnc(C(F)(F)F)c3)c2)c1 78.5

###

- Test system: HCC-2998 colon
- RUN DESCRIPTION: NCI tumour cell line growth inhibition, 48 h
PROPERTY LABEL: TGI

Worked examples, 3 compounds total:
N#C/C(=C\c1ccc(F)cc1)c1nc(-c2cc3ccccc3oc2=O)cs1: > 100 µM
C=C(C)C12CC3CC(/C(=N/O)C(C1)/C3=N\O)[C@@]2(C)O (stereo not given in full): > 100 µM
CC(C)(O)C(O)COc1c2c(cc3oc(=O)ccc13)OCO2 (stereo not given): > 100 µM

Which TGI is reported for this compound? CCOC(=O)C(C(=O)OCC)=C1SC(=Nc2ccccc2)C(=Nc2ccccc2)N1c1ccccc1 > 100 µM

Which TGI is reported for this compound? CN=C1Nc2ccccc2C(=O)N2CSCC12 (stereo not given) > 100 µM

Which TGI is reported for this compound? CC1=NN(c2nc(N)nc(CN3CCOCC3)n2)C(C)(C)C1 > 100 µM

Which TGI is reported for this compound? CC1=C(C#N)C(=C(C#N)C#N)OC1(C)Cc1ccccc1 (stereo not given) 89.6 µM

Which TGI is reported for this compound? CC1=NN(c2cccc(Cl)c2)C2(SCC(=O)N2c2nc3ccccc3s2)C1=CC=Cc1ccccc1 (stereo not given) > 100 µM
